tested on: reverse transcriptase (RNA-directed DNA polymerase); assay: Reverse transcriptase (RNA-directed DNA polymerase) inhibition; format: biochemical; conditions: concentration not given
reported-endpoint: % inhibition (%)
Answer format: numeric, % implied, no suffix.

# count of solved cases: 4
compound: COC(=O)C1C(OC(C)=O)C(C)C(OC(C)=O)C(C)(O)C=CC=C(C)C(=O)Nc2c(C)c(OC(C)=O)c3c(c2O)C(=O)C(C)=C2OCOC(=C23)C(C)=CC(C)(O)C(OC(C)=O)C(C)C1OC(C)=O (centres unmarked) [Streptovaricin A Triacetate]
% inhibition (%): 76.0
//
compound: COC(=O)C1C(O)C(C)C(O)C(C)C=CC=C(C)C(=O)Nc2c(C)c(OC(C)=O)c3c(c2O)C(=O)C(C)=C2OCOC(=C23)C(C)=CC(C)(O)C(O)C(C)C1O (centres unmarked) [Streptovaricin C, reference compound]
% inhibition (%): 47.9
//
compound: CC(=O)C=C(C)C1=C2C(=C(C)C(=O)c3c(O)c(NC(=O)C(C)=CC=CC(C)(O)C4OC(=O)C5C(O)C(C)C(O)OC5C4C)c(C)c(OC(C)=O)c32)OCO1 (centres unmarked)
% inhibition (%): 8.3
//
compound: COC(=O)C1C(OC(C)=O)C(C)C(OC(C)=O)C(C)C=CC=C(C)C(=O)Nc2c(C)c(OC(C)=O)c3c(c2O)C(=O)C(C)=C2OCOC(=C23)C(C)=CC(C)(O)C(O)C(C)C1OC(C)=O (centres unmarked) [Streptovaricin C Triacetate]
% inhibition (%): 79.0

Let us examine a further case.
Prompt: Param readout= % inhibition; system= reverse transcriptase (RNA-directed DNA polymerase); entry= CC(=O)C=C(C)C1=C2C(=C(C)C(=O)c3c(O)c(NC(=O)C(C)=O)c(C)c(OC(C)=O)c32)OCO1 ; returns value.
Response: 59.4
